- Assayed target: kinases (Homo sapiens, UniProt P00519, F317I)
- Construct: purchased Eurofins/DiscoveRx; host or cells: E. coli BL21-derived host (T7 phage display) for most kinases; HEK-293 for the rest
- Sequence (P00519 whole entry F317I): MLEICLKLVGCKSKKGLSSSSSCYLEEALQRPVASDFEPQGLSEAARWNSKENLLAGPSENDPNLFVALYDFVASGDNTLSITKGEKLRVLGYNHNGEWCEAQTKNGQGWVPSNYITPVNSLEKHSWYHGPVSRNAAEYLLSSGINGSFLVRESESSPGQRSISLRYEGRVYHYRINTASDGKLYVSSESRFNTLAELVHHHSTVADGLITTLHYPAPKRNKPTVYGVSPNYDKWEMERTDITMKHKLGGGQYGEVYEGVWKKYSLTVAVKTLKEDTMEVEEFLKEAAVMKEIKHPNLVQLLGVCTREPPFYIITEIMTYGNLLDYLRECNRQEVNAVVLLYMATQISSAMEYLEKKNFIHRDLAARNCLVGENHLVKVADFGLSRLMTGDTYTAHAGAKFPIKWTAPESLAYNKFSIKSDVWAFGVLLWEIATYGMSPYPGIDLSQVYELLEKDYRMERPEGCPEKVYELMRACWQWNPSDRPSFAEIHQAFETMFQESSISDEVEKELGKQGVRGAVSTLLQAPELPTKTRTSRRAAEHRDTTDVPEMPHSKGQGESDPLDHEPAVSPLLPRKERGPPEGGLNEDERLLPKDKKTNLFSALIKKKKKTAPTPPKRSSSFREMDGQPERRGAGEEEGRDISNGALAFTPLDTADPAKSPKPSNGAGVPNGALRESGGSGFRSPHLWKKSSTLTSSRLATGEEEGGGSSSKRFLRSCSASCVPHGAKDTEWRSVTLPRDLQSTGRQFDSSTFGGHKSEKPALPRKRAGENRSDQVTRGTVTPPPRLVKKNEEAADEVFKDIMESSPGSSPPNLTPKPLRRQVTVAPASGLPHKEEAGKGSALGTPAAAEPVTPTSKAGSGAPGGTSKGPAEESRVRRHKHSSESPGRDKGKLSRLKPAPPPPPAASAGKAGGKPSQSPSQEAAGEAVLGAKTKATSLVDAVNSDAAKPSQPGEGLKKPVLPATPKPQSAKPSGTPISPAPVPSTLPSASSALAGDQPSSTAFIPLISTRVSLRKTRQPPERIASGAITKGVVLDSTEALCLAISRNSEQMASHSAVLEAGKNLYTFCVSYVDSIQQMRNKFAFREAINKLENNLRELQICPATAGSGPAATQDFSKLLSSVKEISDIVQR
- Protocol notes: KINOMEscan kinase binding assay (Eurofins/DiscoveRx), % Ctrl
- Protocol conditions: target ABL1(F317I)-phosphorylated; 1 μM
Reported property: % Ctrl, ABL1(F317I)-phosphorylated (% Ctrl)

Take a look at these entries with their results.
[
  {
    "Compound": "Cc1cc2c([nH]1)/C=C1\\C(=O)Nc3ccc(cc31)-c1c(noc1C)CNCCN(C)C2=O [Ex. 139]",
    "Assayed target": "kinases (Homo sapiens, UniProt P00519, F317I)",
    "Numeric result": 60
  },
  {
    "Compound": "CN1CCSCCOc2cc3c(cc2Cl)NC(=O)/C3=C\\c2[nH]ccc2C1=O [Ex. 153]",
    "Assayed target": "kinases (Homo sapiens, UniProt P00519, F317I)",
    "Numeric result": 37
  },
  {
    "Compound": "Cc1cc2c([nH]1)/C=C1\\C(=O)Nc3ccc(cc31)-c1c(C)nn(C)c1COCCN(C)C2=O [Ex. 146]",
    "Assayed target": "kinases (Homo sapiens, UniProt P00519, F317I)",
    "Numeric result": 100
  }
]

(P) CN1CCOCCOc2cc3c(cc2Cl)NC(=O)/C3=C\c2[nH]ccc2C1=O [Ex. 143]
(Q) Cc1cc2c([nH]1)/C=C1\C(=O)Nc3cc(Cl)c(cc31)OCCO[C@@H](C(=O)N1CCN(C)CC1)CN(C)C2=O [Ex. 138]
(R) Cc1cc2c([nH]1)/C=C1\C(=O)Nc3cnc(cc31)-c1cn[nH]c1CNCCN(C)C2=O [Ex. 55]
List by increasing % Ctrl, ABL1(F317I)-phosphorylated. Hello, could you send the labels back in the order asked? Thank you.
P, R, Q

====

- Assayed target: kinases (Homo sapiens)
- Construct: purchased Eurofins/DiscoveRx; host or cells: E. coli BL21-derived host (T7 phage display) for most kinases; HEK-293 for the rest
- Protocol notes: KINOMEscan kinase binding assay (Eurofins/DiscoveRx), % Ctrl
- Protocol conditions: 1 μM; target KIT
Reported property: % Ctrl, KIT (% Ctrl)

Take a look at these entries with their results.
[
  {
    "Molecule": "Cc1cc2c([nH]1)/C=C1\\C(=O)Nc3cc(Cl)c(cc31)SCCOCCN(C)C2=O [Ex. 169]",
    "Assayed target": "kinases (Homo sapiens)",
    "Unit of measurement": "% Ctrl",
    "% Ctrl, KIT": 7.5
  },
  {
    "Molecule": "Cc1cc2c([nH]1)/C=C1\\C(=O)Nc3ccc(cc31)-c1c(noc1C(C)C)COCCN(C)C2=O [Ex. 161]",
    "Assayed target": "kinases (Homo sapiens)",
    "Unit of measurement": "% Ctrl",
    "% Ctrl, KIT": 98
  }
]

(P) CN1CCOc2cc3c(cc2Cl)NC(=O)/C3=C\c2[nH]ccc2C(=O)N(C)CC1 [Ex. 164]
(Q) Cc1cc2c([nH]1)/C=C1\C(=O)Nc3cnc(cc31)-c1cnn(C)c1CN(C)CCN(C)C2=O [Ex. 172]
(R) Cc1cc2c([nH]1)/C=C1\C(=O)Nc3ccc(cc31)-c1cnn(C)c1OCCCN(C)C2=O [Ex. 166]
List by increasing % Ctrl, KIT. Hello, could you send the labels back in the order asked? Thank you.
P, Q, R

====

- Assayed target: kinases (Homo sapiens, UniProt P07949, V804L)
- Construct: purchased Eurofins/DiscoveRx; host or cells: E. coli BL21-derived host (T7 phage display) for most kinases; HEK-293 for the rest
- Sequence (P07949 29-1114 V804L): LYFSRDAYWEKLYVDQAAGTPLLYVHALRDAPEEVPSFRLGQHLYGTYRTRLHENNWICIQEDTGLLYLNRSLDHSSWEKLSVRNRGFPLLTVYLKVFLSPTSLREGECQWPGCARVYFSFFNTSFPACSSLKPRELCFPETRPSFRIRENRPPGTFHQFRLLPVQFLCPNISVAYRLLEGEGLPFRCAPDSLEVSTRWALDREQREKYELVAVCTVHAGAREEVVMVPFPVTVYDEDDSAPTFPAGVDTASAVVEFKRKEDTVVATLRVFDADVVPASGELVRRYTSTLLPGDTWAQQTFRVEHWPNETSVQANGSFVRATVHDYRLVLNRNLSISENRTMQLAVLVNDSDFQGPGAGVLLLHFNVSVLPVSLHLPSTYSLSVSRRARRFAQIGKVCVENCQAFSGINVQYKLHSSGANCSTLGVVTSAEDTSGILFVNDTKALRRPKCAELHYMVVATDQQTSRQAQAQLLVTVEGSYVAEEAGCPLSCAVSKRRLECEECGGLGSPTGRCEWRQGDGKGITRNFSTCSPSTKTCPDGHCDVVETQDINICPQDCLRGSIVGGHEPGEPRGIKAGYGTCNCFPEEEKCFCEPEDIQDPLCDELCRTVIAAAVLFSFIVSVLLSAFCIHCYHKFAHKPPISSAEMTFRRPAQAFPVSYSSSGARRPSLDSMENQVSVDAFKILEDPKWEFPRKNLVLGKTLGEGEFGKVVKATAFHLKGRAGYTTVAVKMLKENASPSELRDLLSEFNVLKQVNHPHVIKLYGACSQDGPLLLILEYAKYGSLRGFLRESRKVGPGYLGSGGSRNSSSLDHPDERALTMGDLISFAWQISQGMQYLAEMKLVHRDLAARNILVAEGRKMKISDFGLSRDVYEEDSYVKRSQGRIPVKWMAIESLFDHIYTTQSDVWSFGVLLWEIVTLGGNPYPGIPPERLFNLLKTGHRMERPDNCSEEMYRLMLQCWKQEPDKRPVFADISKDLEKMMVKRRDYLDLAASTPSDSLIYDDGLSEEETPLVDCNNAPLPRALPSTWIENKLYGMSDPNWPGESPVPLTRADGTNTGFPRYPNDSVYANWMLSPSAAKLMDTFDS
- Protocol notes: KINOMEscan kinase binding assay (Eurofins/DiscoveRx), % Ctrl
- Protocol conditions: 1 μM; RET(V804L)
- Procedure: Kinase binding assays were performed at Eurofins/DiscoveRx using the general KINOMEscan Protocol (Fabian, M. A. et al., “A small molecule-kinase interaction map for clinical kinase inhibitors,” Nat. Biotechnol. 2005, 23(3):329-36). For most assays, kinase-tagged T7 phage strains were prepared in an E. coli host derived from the BL21 strain. […] The kinase concentration in the eluates was measured by qPCR. […]
Reported property: % Ctrl, RET(V804L) (% Ctrl)

(A) Cc1cc2c([nH]1)/C=C1\C(=O)Nc3ccc(cc31)CN(C)C(=O)COCCNC2=O
(B) Cc1cc2c([nH]1)/C=C1\C(=O)Nc3ccc(cc31)-c1ccnn1CCOCCN(C)C2=O
Which numeric % Ctrl, RET(V804L) is bigger, that of A or that of B ? Choose, then provide that item's label.
A

(I) Cc1cc2c([nH]1)/C=C1\C(=O)Nc3cnc(cc31)-c1cnn(C)c1COCCNC2=O
(II) Cc1cc2c([nH]1)/C=C1\C(=O)Nc3ccc(cc31)-c1cnn(C)c1CNCCN(C)C2=O
(III) Cc1cc2c([nH]1)/C=C1\C(=O)Nc3ccc(cc31)O[C@@H](C)COCCN(C)C2=O
List by increasing % Ctrl, RET(V804L). Hello, could you send the labels back in the order asked? Thank you.
II, III, I
(II: 0 % Ctrl, III: 43 % Ctrl, I: 89 % Ctrl)

====

- Test system: kinases
- Protocol notes: KINOMEscan kinase binding assay (Eurofins/DiscoveRx), % Ctrl
- Protocol conditions: 1 μM; EGFR(L747-T751del, Sins)
Reported property: % Ctrl, EGFR(L747-T751del, Sins) (% Ctrl)

Take a look at these entries with their results.
[
  {
    "Compound": "Cc1cc2c([nH]1)/C=C1\\C(=O)Nc3ccc(cc31)-c1ccnn1CCNCCNC2=O [Ex. 43]",
    "% Ctrl, EGFR(L747-T751del, Sins) [% Ctrl]": 85
  },
  {
    "Compound": "Cc1cc2c([nH]1)/C=C1\\C(=O)Nc3ccc(cc31)CN(C)C(=O)COCCNC2=O [Ex.111]",
    "% Ctrl, EGFR(L747-T751del, Sins) [% Ctrl]": 59
  },
  {
    "Compound": "Cc1cc2c([nH]1)/C=C1\\C(=O)Nc3cc(Cl)c(cc31)OCCO[C@@H](C(=O)NC1CCNCC1)CN(C)C2=O [Ex. 134]",
    "% Ctrl, EGFR(L747-T751del, Sins) [% Ctrl]": 99
  },
  {
    "Compound": "Cc1cc2c([nH]1)/C=C1\\C(=O)Nc3ccc(cc31)-c1c(noc1C)COCCN(C)C2=O [Ex. 128]",
    "% Ctrl, EGFR(L747-T751del, Sins) [% Ctrl]": 94
  },
  {
    "Compound": "Cc1cc2c([nH]1)/C=C1\\C(=O)Nc3ccc(nc31)-c1ccccc1OCCCNC2=O [Ex.22]",
    "% Ctrl, EGFR(L747-T751del, Sins) [% Ctrl]": 81
  }
]

(a) Cc1cc2c([nH]1)/C=C1\C(=O)Nc3ccc(cc31)OCCOCCN(C)C2=O [Ex.91]
(b) Cc1cc2c([nH]1)/C=C1\C(=O)Nc3cc(Cl)c(cc31)OCCO[C@@H](C(=O)NC1CNC1)CN(C)C2=O [Ex. 133]
Lower value of % Ctrl, EGFR(L747-T751del, Sins) belongs to which: a or b ? Choose, then provide that item's label.
a

====

- Assayed target: kinases (Homo sapiens, UniProt P00533, L858R)
- Construct: purchased Eurofins/DiscoveRx; host or cells: E. coli BL21-derived host (T7 phage display) for most kinases; HEK-293 for the rest
- Protocol notes: KINOMEscan kinase binding assay (Eurofins/DiscoveRx), % Ctrl
- Protocol conditions: 1 μM; EGFR(L858R)
Reported property: % Ctrl, EGFR(L858R) (% Ctrl)

[
  {
    "Item smiles": "Cc1cc2c([nH]1)/C=C1\\C(=O)Nc3cnc(cc31)-c1cnn(C)c1COCCNC2=O",
    "Unit of measurement": "% Ctrl",
    "Numeric result": 94
  }
]

(I) Cc1cc2c([nH]1)/C=C1\C(=O)Nc3ccc(cc31)O[C@@H](C)COCCN(C)C2=O
(II) Cc1cc2c([nH]1)/C=C1\C(=O)Nc3cc(Cl)c(cc31)OCCOCCN(C)C2=O
(III) Cc1cc2c([nH]1)/C=C1\C(=O)Nc3cnc(nc31)N(C)CCCOCCN(C)C2=O
(IV) Cc1cc2c([nH]1)/C=C1\C(=O)Nc3ccc(cc31)-c1cnn(C)c1CN(C)CCN(C)C2=O
Descending sort on % Ctrl, EGFR(L858R) required. Hello, could you send the labels back in the order asked? Thank you.
I, II, IV, III

(P) Cc1cc2c([nH]1)/C=C1\C(=O)Nc3ccc(cc31)-c1cnn(C)c1COCCN(C)C2=O
(Q) CNC(=O)[C@H]1CN(C)C(=O)c2cc(C)[nH]c2/C=C2\C(=O)Nc3cc(Cl)c(cc32)OCCO1
Lower value of % Ctrl, EGFR(L858R) belongs to which: P or Q ? Choose, then provide that item's label.
P

(P) Cc1cc2c([nH]1)/C=C1\C(=O)Nc3cc(Cl)c(cc31)OCCO[C@@H](C(=O)NC1CCNCC1)CN(C)C2=O
(Q) Cc1cc2c([nH]1)/C=C1\C(=O)Nc3ccc(cc31)-c1c(C)n[nH]c1CNCCN(C)C2=O
Lower value of % Ctrl, EGFR(L858R) belongs to which: P or Q ? Choose, then provide that item's label.
Q

(a) Cc1cc2c([nH]1)/C=C1\C(=O)Nc3ccc(cc31)-c1c(noc1C)COCCN(C)C2=O
(b) Cc1cc2c([nH]1)/C=C1\C(=O)Nc3ccc(cc31)-c1cnn(C)c1CNCCN(C)C2=O
Lower value of % Ctrl, EGFR(L858R) belongs to which: a or b ? Choose, then provide that item's label.
b
